- Measured Target: IRAK4 enzyme (Homo sapiens (Human))
- Sequence (Q9NWZ3 whole entry): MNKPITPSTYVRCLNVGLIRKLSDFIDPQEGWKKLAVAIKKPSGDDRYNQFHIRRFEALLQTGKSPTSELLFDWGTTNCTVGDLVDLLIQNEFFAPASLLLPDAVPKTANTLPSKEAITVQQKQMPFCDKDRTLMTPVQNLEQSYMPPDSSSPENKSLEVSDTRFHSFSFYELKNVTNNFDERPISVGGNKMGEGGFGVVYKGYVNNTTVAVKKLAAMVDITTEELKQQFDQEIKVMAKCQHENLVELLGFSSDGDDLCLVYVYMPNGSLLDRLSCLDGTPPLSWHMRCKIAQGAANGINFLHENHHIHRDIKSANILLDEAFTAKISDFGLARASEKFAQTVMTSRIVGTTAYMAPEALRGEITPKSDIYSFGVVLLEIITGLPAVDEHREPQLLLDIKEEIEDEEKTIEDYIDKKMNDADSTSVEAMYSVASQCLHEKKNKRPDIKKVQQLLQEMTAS
- Assay Comment: biochemical
- Type: biochemical
- Test Conditions: IRAK4 enzyme, TR-FRET, 500 μM ATP
pIC50: −log10 of the molar value.
Examples of compounds with documented pIC50 follow.

Compound	Comparative Sign	pIC50
CC(C)(O)[C@H](F)CNC(=O)c1cnc(-c2ccc3cc(C#N)cnn23)cc1NC1CC2(CCN2CC(F)(F)F)C1 (some centres unmarked) [Example 910]	=	8.00
COC(=O)NC12CCC(Nc3cc(-c4ccc5cc(C#N)cnn45)ncc3C(=O)NC[C@@H](F)C(C)(C)O)(CC1)CC2	>	9.00
CC(C)Nc1cc(-c2ccc3cc(C#N)cnn23)ncc1C(=O)NCC1CS(=O)(=O)C1	=	8.40
CC(=O)N1CCC[C@H](Nc2cc(-c3ccc4cc(C#N)cnn34)ncc2C(=O)NC[C@@H](F)C(C)(C)O)C1	=	8.70
CC(C)(O)[C@H](F)CNC(=O)c1cnc(-c2ccc3cc(C#N)cnn23)cc1Nc1ccccc1C#N	=	7.74
N#Cc1cnn2c(-c3cc(Nc4cnc5c(c4)OCCO5)c(C(=O)N[C@H]4CC[C@H](NC(=O)C5CC5)CC4)cn3)ccc2c1	>	9.00
CC(C)C(=O)NCc1ccc(Nc2cc(-c3ccc4cc(C#N)cnn34)ncc2C(=O)NC[C@@H](F)C(C)(C)O)cc1	>	9.00
CC1(C(=O)N2CCC(Nc3cc(-c4ccc5cc(C#N)cnn45)ncc3C(=O)NC[C@@H](F)C(C)(C)O)CC2)COC1	=	8.52
CC(C)(O)[C@H](F)CNC(=O)c1cnc(-c2ccc3cc(C#N)cnn23)cc1Nc1ccc(N2CC3CC(C2)O3)nc1	>	9.00
N#Cc1cnn2c(-c3cc(NC45CCC(O)(CC4)CC5)c(C(=O)NCC(=O)N4CC5(COC5)C4)cn3)ccc2c1	=	8.52
CC(C)(O)[C@H](F)CNC(=O)c1cnc(-c2ccc3cc(C#N)cnn23)cc1NC1C2CC1CN(S(C)(=O)=O)C2 (some centres unmarked)	=	8.52
N#Cc1cnn2c(-c3cc(NC45CCC(O)(CC4)CC5)c(C(=O)NCC(=O)c4ccccc4)cn3)ccc2c1	>	9.00
N#Cc1cnn2c(-c3cc(NC45CCC(O)(CC4)CC5)c(C(=O)N[C@H]4CNC4=O)cn3)ccc2c1	>	9.00
Cc1nnc(Nc2cc(-c3ccc4cc(C#N)cnn34)ncc2C(=O)NC[C@@H](F)C(C)(C)O)s1	=	9.00

====

- Tested on: TNFα
- Assay Comment: cells
- Format: cell-based, human
- Test Conditions: Homo sapiens, Monocyte, LPS-stimulated human monocytes, TNFα by TR-FRET; read-out: EC50 TNF
pEC50: −log10 of the molar value.
Everything with pEC50 lower than 7 is No; everything else, including exactly 7, is Yes.

Compound	Classification
CCC(=O)c1cccc(Nc2cc(-c3ccc4cc(C#N)cnn34)ncc2C(=O)NC[C@@H](F)C(C)(C)O)c1 [Example 839]	No
COC(=O)NC[C@H]1C[C@H](Nc2cc(-c3ccc4cccnn34)ncc2C(=O)NC[C@@H](F)C(C)(C)O)C1 [Example 818]	No
CC(C)Cc1cccc(Nc2cc(-c3ccc4cc(C#N)cnn34)ncc2C(=O)NC[C@@H](F)C(C)(C)O)c1 [Example 838]	No
N#Cc1cnn2c(-c3cc(NC45CCC(O)(CC4)CC5)c(C(=O)N[C@@H]4CCCNC4=O)cn3)ccc2c1 [Example 958]	No
CC(C)(O)[C@H](F)CNC(=O)c1cnc(-c2ccc3cc(C#N)cnn23)cc1-n1cc(-c2ccc(N)cn2)cn1 [Example 939]	No
CC(C)(O)[C@H](F)CNC(=O)c1cnc(-c2ccc3cc(C#N)cnn23)cc1N[C@H]1C[C@H](CNC(=O)C2CC2F)C1 (some centres unmarked) [Example 941]	Yes
N#Cc1cnn2c(-c3cc(NC45CCC(O)(CC4)CC5)c(C(=O)N[C@H]4CCCNC4=O)cn3)ccc2c1 [Example 957]	No
CC(C)(C)C(=O)NC[C@H]1C[C@H](Nc2cc(-c3ccc4cc(C#N)cnn34)ncc2C(=O)NC[C@@H](F)C(C)(C)O)C1 [Example 824]	Yes
CN(C(=O)CNC(=O)c1cnc(-c2ccc3cc(C#N)cnn23)cc1NC12CCC(O)(CC1)CC2)C(C)(C)C [Example 814]	Yes
CCOc1cncc(Nc2cc(-c3ccc4cc(C#N)cnn34)ncc2C(=O)NC[C@@H](F)C(C)(C)O)c1 [Example 835]	Yes
CC(C)(O)[C@H](F)CNC(=O)c1cnc(-c2ccc3cc(C#N)cnn23)cc1Nc1cnc(N2CC3CC(C2)O3)nc1 [Example 920]	Yes

====

Measured pEC50 accompanies every entry in the list below.
- Test system: TNFα
- Assay Comment: cells
- Type: cell-based, human
- Test Conditions: Homo sapiens, Monocyte, LPS-stimulated human monocytes, TNFα content; read-out: EC50 TNF
pEC50: −log10 of the molar value.

Compound	Measured Target	pEC50
CC(C)Nc1cc(-c2ccc3cc(C#N)cnn23)ncc1C(=O)N[C@@H]1CCC[C@@H](O)C1 [Example 192]	TNFα	6.80
COC(=O)NC(C)(C)CCNC(=O)c1cnc(-c2ccc3cc(C#N)cnn23)cc1NC12CCC(O)(CC1)CC2 [Example 343]	TNFα	7.42
CC(=O)NC12CCC(Nc3cc(-c4ccc5cc(C#N)cnn45)ncc3C(=O)NC[C@@H](F)C(C)(C)O)(CC1)CC2 [Example 317]	TNFα	7.96
CC(=O)N1CC2(CC(Nc3cc(-c4ccc5cc(C#N)cnn45)ncc3C(=O)NC[C@@H](F)C(C)(C)O)C2)C1 [Example 447]	TNFα	6.54
COC(=O)NC(C)(C)c1ccc(Nc2cc(-c3ccc4cc(C#N)cnn34)ncc2C(=O)NC[C@@H](F)C(C)(C)O)cc1 [Example 214]	TNFα	7.44
CC(C)(O)[C@H](F)CNC(=O)c1cnc(-c2ccc3cc(C#N)cnn23)cc1N[C@H]1C[C@H](Cn2cncn2)C1 [Example 776]	TNFα	7.49
CC(C)(O)[C@H](F)CNC(=O)c1cnc(-c2ccc3cc(C#N)cnn23)cc1Nc1ncc(F)cn1 [Example 584]	TNFα	6.56

====

- Test system: TNFα
- Assay Comment: cells
- Assay type: cell-based, human
- Test Conditions: Homo sapiens, Monocyte, LPS-stimulated human monocytes, TNFα content; read-out: EC50 TNF
pEC50: −log10 of the molar value.
Result Type: pEC50

Record Smiles	Result Type	Val
CC(C)Nc1cc(-c2ccc3cc(C#N)cnn23)ncc1C(=O)N[C@H]1CCOC[C@@H]1F	pEC50	6.77
N#Cc1cnn2c(-c3cc(NC45CCC(O)(CC4)CC5)c(C(=O)NCC(=O)N4CCCC4)cn3)ccc2c1	pEC50	7.68
COC(=O)NCCCCNc1cc(-c2ccc3cc(C#N)cnn23)ncc1C(=O)NC[C@@H](F)C(C)(C)O	pEC50	7.18
Cc1cc(Nc2cc(-c3ccc4cc(C#N)cnn34)ncc2C(=O)NC[C@@H](F)C(C)(C)O)cnc1F	pEC50	6.82

====

- Measured Target: IRAK4 enzyme (Homo sapiens (Human))
- Assay Comment: biochemical
- Assay type: biochemical
- Test Conditions: IRAK4 enzyme, TR-FRET, 500 μM ATP
pIC50: −log10 of the molar value.
Listed here are compounds together with their documented pIC50.
Result Type: pIC50

Compound	Comparative Sign	Val
CC(C)(O)[C@H](F)CNC(=O)c1cnc(-c2ccc3cc(C#N)cnn23)cc1Nc1nnc(N2CCOCC2)o1 [Example 144]	=	6.18
CC(C)Nc1cc(-c2ccc3cccnn23)ncc1C(=O)NC[C@@H](F)C(C)(C)O [Example 817]	=	8.22
CC(C)(O)[C@H](F)CNC(=O)c1cnc(-c2ccc3cc(C#N)cnn23)cc1Nc1cnn([C@@H]2CNC[C@@H]2F)c1 [Example 883]	>	9.00
CC(C)Nc1cc(-c2ccc3cc(C#N)cnn23)ncc1C(=O)NC1CC2(COC2)C1 [Example 96]	=	8.70

====

- System: TNFα
- Assay Comment: cells
- Format: cell-based, human
- Test Conditions: Homo sapiens, Monocyte, LPS-stimulated human monocytes, TNFα content; read-out: EC50 TNF
pEC50: −log10 of the molar value.
Result Type: pEC50

Compound	Val
CC(C)Nc1cc(-c2ccc3cc(C#N)cnn23)ncc1C(=O)NC1CC2(CC(=O)C2)C1 [Example 152]	6.72
N#Cc1cnn2c(-c3cc(NC45CCC(O)(CC4)CC5)c(C(=O)NCC4(C(F)F)COC4)cn3)ccc2c1 [Example 710]	6.74
Cc1cncc(Nc2cc(-c3ccc4cc(C#N)cnn34)ncc2C(=O)NC[C@@H](F)C(C)(C)O)c1 [Example 233]	6.77
Cc1ncc(C2CCC(Nc3cc(-c4ccc5cc(C#N)cnn45)ncc3C(=O)NC[C@@H](F)C(C)(C)O)CC2)o1 (stereo partly shown) [Example 644]	7.44

====

Listed here: items and their measured IC50.
- Measured Target: UniProt:Q9NWZ3
- Assay Comment: biochemical
- Format: biochemical
Structures can show the parent of a compound that is named as a salt.

Molecule	Measured Target	Comparative Sign	IC50 (nM)
CC(=O)N[C@H]1CC[C@H](Nc2cc(-c3ccc4cc(C#N)cnn34)ncc2C(=O)NC[C@@H](F)C(C)(C)O)CC1	UniProt:Q9NWZ3	<	1
CC(C)(O)[C@H](F)CNC(=O)c1cnc(-c2ccc3cc(C#N)cnn23)cc1N[C@H]1CC[C@H](NCC(F)(F)F)CC1	UniProt:Q9NWZ3	=	1
CC(C)(O)[C@H](F)CNC(=O)c1cnc(-c2ccc3cc(C#N)cnn23)cc1N[C@H]1CC[C@H](N)CC1 [Example 316, hydrochloride]	UniProt:Q9NWZ3	<	1
CC1(C(=O)N[C@H]2CC[C@H](Nc3cc(-c4ccc5cc(C#N)cnn45)ncc3C(=O)NC[C@@H](F)C(C)(C)O)CC2)COC1	UniProt:Q9NWZ3	=	2
